Each recorded value in this set is attributed to PubChem BioAssay AID2060907.

- Test system: 388556-164-R-J1-PDC complex spheroid viability;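 also: spheroids exposed to compound for 7 days before readout; 100% = DMSO vehicle control luminescence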
- experimental protocol: Anticancer human tumor 388556-164-R-J1-PDC patient-derived colon adenocarcinoma cell line growth inhibition [RAS]
- measurement conditions: second compound 0.0316 µM; first compound 0.316 µM; stronger effect = lower value
Kindly state viability, T/C for each of the entries shown.
Field format: number, assumed %, no unit text.

Inquiry: Which viability, T/C value belongs to CC1(O)CCCC1n1c(=O)c(C(F)F)cc2cnc(NC3CCN(S(C)(=O)=O)CC3)nc21 (stereo unspecified) + C=CC(=O)N1CCN(c2nc(OCC3CCCN3C)nc3c(F)c(-c4nc(N)cc(C)c4C(F)(F)F)c(Cl)cc23)C(C)C1 ?
Reply text: 102

Inquiry: Which viability, T/C value belongs to NC1c2ccccc2OC12CCN(c1cnc3c(N4CCCc5ncccc54)n[nH]c3n1)CC2 (stereo unspecified) + C=CC(=O)N1CCN(c2nc(OCC3CCCN3C)nc3c(F)c(-c4nc(N)cc(C)c4C(F)(F)F)c(Cl)cc23)C(C)C1 ?
Reply text: 44.1

Inquiry: Which viability, T/C value belongs to CCN1CCN(Cc2ccc(Nc3ncc(F)c(-c4cc(F)c5nc(C)n(C(C)C)c5c4)n3)nc2)CC1 + C#Cc1c(F)ccc2cc(O)cc(-c3ncc4c(N5CC6CCC(C5)N6)nc(OCC56CCCN5CC(F)C6)nc4c3F)c12 ?
Reply text: 92.3

Inquiry: Which viability, T/C value belongs to CCC(CC)c1cc(NC2CCC(N)C2)n2nccc2n1 (stereo unspecified) + C#Cc1c(F)ccc2cc(O)cc(-c3ncc4c(N5CC6CCC(C5)N6)nc(OCC56CCCN5CC(F)C6)nc4c3F)c12 ?
Reply text: 109

Inquiry: Which viability, T/C value belongs to CC(=O)OC12COC1CC(O)C1(C)C(=O)C(O)C3=C(C)C(OC(=O)C(O)C(NC(=O)OC(C)(C)C)c4ccccc4)CC(O)(C(OC(=O)c4ccccc4)C21)C3(C)C (stereo unspecified) + C#Cc1c(F)ccc2cc(O)cc(-c3ncc4c(N5CC6CCC(C5)N6)nc(OCC56CCCN5CC(F)C6)nc4c3F)c12 ?
Reply text: 76.1

Inquiry: Which viability, T/C value belongs to CC(Nc1ccc2c(c1)OCCn1cc(N3C(=O)OCC3C(F)F)nc1-2)C(N)=O (stereo unspecified) + C#Cc1c(F)ccc2cc(O)cc(-c3ncc4c(N5CC6CCC(C5)N6)nc(OCC56CCCN5CC(F)C6)nc4c3F)c12 ?
Reply text: 94

Inquiry: Which viability, T/C value belongs to C[C@@H](NC(=O)c1ncnc(N)c1Cl)c1ncc(C(=O)Nc2cc(C(F)(F)F)c(Cl)cn2)s1 + C=CC(=O)N1CCN(c2nc(OCC3CCCN3C)nc3c(F)c(-c4nc(N)cc(C)c4C(F)(F)F)c(Cl)cc23)C(C)C1 ?
Reply text: 116

Inquiry: Which viability, T/C value belongs to CC(C)NCC(C(=O)N1CCN(c2ncnc3c2C(C)CC3O)CC1)c1ccc(Cl)cc1 (stereo unspecified) + C=CC(=O)N1CCN(c2nc(OCC3CCCN3C)nc3c(F)c(-c4nc(N)cc(C)c4C(F)(F)F)c(Cl)cc23)C(C)C1 ?
Reply text: 110

Inquiry: Which viability, T/C value belongs to Cc1nc(N2CCC3(CC2)COC(C)C3N)c(CO)nc1Sc1ccnc(N)c1Cl (stereo unspecified) + C=CC(=O)N1CCN(c2nc(OCC3CCCN3C)nc3c(F)c(-c4nc(N)cc(C)c4C(F)(F)F)c(Cl)cc23)C(C)C1 ?
Reply text: 73.3

Inquiry: Which viability, T/C value belongs to CC1(O)CCCC1n1c(=O)c(C(F)F)cc2cnc(NC3CCN(S(C)(=O)=O)CC3)nc21 (stereo unspecified) + C#Cc1c(F)ccc2cc(O)cc(-c3ncc4c(N5CC6CCC(C5)N6)nc(OCC56CCCN5CC(F)C6)nc4c3F)c12 ?
Reply text: 97.3

Inquiry: Which viability, T/C value belongs to Cc1nc(N2CCC3(CC2)COC(C)C3N)c(CO)nc1Sc1ccnc(N)c1Cl (stereo unspecified) + C#Cc1c(F)ccc2cc(O)cc(-c3ncc4c(N5CC6CCC(C5)N6)nc(OCC56CCCN5CC(F)C6)nc4c3F)c12 ?
Reply text: 79.8
